Exercise: for every item that follows, state its recorded GI50.
# System: HOP-92 NSCLC
# experimentalDetails: NCI tumour cell line growth inhibition, 48 h

In the examples that follow, each entry is paired with its recorded GI50.
[[record]]
substancesmiles = "CN1CCN(CCCCCN=c2cc3c(=O)n(CCCCCN4CCN(C)CC4)c(=O)c4c(NCCCCCN5CCN(C)CC5)cc5c(O)n(CCCCCN6CCN(C)CC6)c(=O)c2c5c4-3)CC1"
assaysystem = "HOP-92 NSCLC"
quantityname = "GI50"
reportedmeasurement = "1.84 µM"

[[record]]
substancesmiles = "O=C(NNS(=O)(=O)c1ccc(Cl)cc1Cl)c1cccnc1Nc1ccc(Cl)cc1"
assaysystem = "HOP-92 NSCLC"
quantityname = "GI50"
reportedmeasurement = "14.6 µM"


Please give GI50, item by item, for the list that follows.
1. O=C(Nc1ccccc1OC(=O)c1ccccc1)c1ccccc1
2. O=C(CN1N=C(c2ccc(F)cc2)CCC1=O)Nc1nc2ccccc2s1

Result:
1. 23.1 µM
2. 1.31 µM

====

Exercise: for every item that follows, state its recorded TGI.
# System: MCF7 breast
# experimentalDetails: NCI tumour cell line growth inhibition, 48 h

[[record]]
molecule = "Nc1ncnc2c1ncn2[C@@H]1O[C@H](COC(c2ccccc2)(c2ccccc2)c2ccccc2)[C@@H](OC(=S)Oc2ccccc2)[C@@H]1F"
reportedmeasurement = "14.9 µM"


Please give TGI, item by item, for the list that follows.
1. O=C(NNS(=O)(=O)c1ccc(Cl)cc1Cl)c1cccnc1Nc1ccc(Cl)cc1
2. Cc1ccncc1C(N)=O
3. COc1cccc(/N=N/C(=NNC(=O)c2ccc(C)cc2)c2ccc(N(C)C)cc2)c1
4. COc1cccc(Oc2ccccc2NC(=O)CNC(=O)c2cccc3ccccc23)c1

Result:
> 100 µM
> 100 µM
> 100 µM
> 25 µM

Please give TGI, item by item, for the list that follows.
1. Cn1ccnc1Oc1ccc(Cl)cc1
2. CCOC(=O)c1c[nH]c2ccc3c(c2c1=O)S(=O)(=O)CC3 (tested in a mixture with another compound)
3. C=CCc1cc(Nc2c3ccc(Cl)cc3nc3ccc(OC)cc23)cc(CN(CC)CC)c1O

Result:
1: 38.3 µM; 2: > 100 µM; 3: 7.94 µM

====

# Test system: SNB-75 CNS
# experimentalDetails: NCI tumour cell line growth inhibition, 48 h
quantityName: TGI (µM)
One number for each entry, in µM.

[[record]]
substancesmiles = "COc1cc(C(=O)Nc2cc(O)c(CC=C(C)C)c(O)c2)cc2c1O[C@]1(C)CC[C@@H](O)C(C)(C)[C@H]1C2"
u = "µM"
reportedmeasurement = 17

[[record]]
substancesmiles = "CN1CCN(CCCCCN=c2cc3c(=O)n(CCCCCN4CCN(C)CC4)c(=O)c4c(NCCCCCN5CCN(C)CC5)cc5c(O)n(CCCCCN6CCN(C)CC6)c(=O)c2c5c4-3)CC1"
u = "µM"
reportedmeasurement = 10.2

[[record]]
substancesmiles = "CC1=C(C(=O)Nc2ccc(Cl)c(Cl)c2)C(c2ccc([N+](=O)[O-])cc2)C(C(=O)Nc2ccc(Cl)c(Cl)c2)=C(C)N1"
u = "µM"
reportedmeasurement = 20.5


Attention now shifts to the item below.
Just so you know, measured TGI for "COC(=O)c1cc(-c2ccc(OC)c(OC)c2)[nH]c1N/N=C/c1c(Cl)cccc1Cl" came out at 2.21

====

# System: HOP-62 NSCLC
# experimentalDetails: NCI tumour cell line growth inhibition, 48 h
quantityName: TGI (µM)
One number for each entry, in µM.

[[record]]
compound = "COc1cc(/C=C/c2ccc3c(Br)cc(Br)c(O)c3n2)ccc1O"
reportedmeasurement = 8.07

[[record]]
compound = "CC(C)(C)c1cc2nc(c1)C(C(F)(F)F)(C(F)(F)F)OB(Br)OC2(C(F)(F)F)C(F)(F)F"
reportedmeasurement = 3.14

[[record]]
compound = "Cc1cc2c(cc1C)[n+](=O)c(C(=O)c1ccccc1)c(C(F)(F)F)n2[O-]"
reportedmeasurement = 2.34


Please give TGI, item by item, for the list that follows.
1. OC(c1cccnc1Cl)c1nc2ccccc2c2ccnc(Cl)c12 (centres undefined)
2. COc1cc2c(cc1F)C(c1ccccc1Cl)=Nc1c(n[nH]c1C)N2

Result:
[15.3, 19.1]

====

# System: CAKI-1 renal
# experimentalDetails: NCI tumour cell line growth inhibition, 48 h
quantityName: GI50

In the examples that follow, each entry is paired with its recorded GI50.
[[record]]
molecule = "Oc1c(-c2cc(C(F)(F)F)[nH]n2)cc(Cl)c(OCc2ccc(Cl)cc2)c1-c1ccc(Cl)c(C(F)(F)F)c1"
reportedmeasurement = "514 nM"

[[record]]
molecule = "COc1ccc(Nc2ccc([N+](=O)[O-])cc2[N+](=O)[O-])cc1CN(CCCl)CCCl"
reportedmeasurement = "1390 nM"

[[record]]
molecule = "COc1cc(/C=C/c2ccc3c(Br)cc(Br)c(O)c3n2)ccc1O"
reportedmeasurement = "553 nM"

[[record]]
molecule = "O=Nc1c(-c2c(O)[nH]c3ncccc23)[nH]c2ccccc12"
reportedmeasurement = "1900 nM"


Just so you know, measured GI50 for Nc1n[nH]c2ccc([C@@H]3Nc4cc5c(cc4[C@H]4C6CCC(C6)[C@@H]34)C(=O)NC5)cc12 (stereo not given in full) came out at 498 nM

====

Exercise: for every item that follows, state its recorded GI50.
# System: NCI/ADR-RES ovarian
# experimentalDetails: NCI tumour cell line growth inhibition, 48 h

In the examples that follow, each entry is paired with its recorded GI50.
[[record]]
substancesmiles = "O=C1C(OCCOc2ccccc2)=C(OCCOc2ccccc2)C(=O)c2ccccc21"
assaysystem = "NCI/ADR-RES ovarian"
reportedmeasurement = "7.64 µM"

[[record]]
substancesmiles = "COc1ccc(/C=C(\\C)[N+](=O)[O-])cc1OC"
assaysystem = "NCI/ADR-RES ovarian"
reportedmeasurement = "3.55 µM"


Please give GI50, item by item, for the list that follows.
1. Cc1ccncc1C(N)=O
2. c1cc(N2CCN(c3ccc(C4=NCCCN4)cc3)CC2)ccc1C1=NCCCN1

Result:
["> 100 µM", "> 100 µM"]

====

# Tested on: M14 melanoma
# experimentalDetails: NCI tumour cell line growth inhibition, 48 h
Exercise: for every item that follows, state its recorded TGI.

In the examples that follow, each entry is paired with its recorded TGI.
[[record]]
compound = "Cc1cc(C)c(C2CNCc3cc4c(cc32)CNCC4c2c(C)cc(C)cc2C)c(C)c1 (configuration not stated)"
assaysystem = "M14 melanoma"
reportedmeasurement = "3.28 µg/mL"

[[record]]
compound = "CC1=C(CC2C(=O)N(c3ccccc3)S(=O)(=O)NC2C)C(=O)N(c2ccccc2)S(=O)(=O)N1C (configuration not stated)"
assaysystem = "M14 melanoma"
reportedmeasurement = "> 100 µM"

[[record]]
compound = "COc1ccc(CNc2cc(=O)n(C)c(=O)[nH]2)cc1"
assaysystem = "M14 melanoma"
reportedmeasurement = "> 100 µM"

[[record]]
compound = "COC(=O)c1cc(-c2ccc(OC)c(OC)c2)[nH]c1N/N=C/c1c(Cl)cccc1Cl"
assaysystem = "M14 melanoma"
reportedmeasurement = "5.2 µM"

[[record]]
compound = "O=C1CCCC/C1=C\\c1ccc(Cl)c(Cl)c1"
assaysystem = "M14 melanoma"
reportedmeasurement = "42.2 µM"

[[record]]
compound = "O=C1c2c(Br)sc(Br)c2[C@@H](NC(=O)C(F)(F)F)C1Br (some centres not stated)"
assaysystem = "M14 melanoma"
reportedmeasurement = "6.23 µM"


Please give TGI, item by item, for the list that follows.
1. CSc1c(C#N)c(N)n(-c2ccc(Cl)cc2)c(=O)c1C#N
2. CCCCNc1nc(NC2OCC(OC(C)=O)C(OC(C)=O)C2OC(C)=O)c(N=O)c(=O)n1C (configuration not stated)
3. O=C1OC(=O)c2c1c(-c1ccccc1)nc1ccccc21

Result:
["> 100 µM", "> 10 µM", "> 100 µM"]

====

# Test system: NCI-H23 lung
# experimentalDetails: NCI tumour cell line growth inhibition, 48 h
Label rule, in plain words: TGI of 20 µM and up is YES, under 20 µM is NO.

The following compounds have reported results that may help.
[[record]]
compound = "CCOC(=O)c1cc2c(cc1Cl)SC(=Nc1ccccc1)N(S(=O)(=O)c1ccc(Br)s1)S2(=O)=O"
assaysystem = "NCI-H23 lung"
labelclass = "YES"

[[record]]
compound = "O=C1N[C@@H]2C(=C[C@H](O)[C@@H](O)[C@H]2O)c2cc3c(c(O)c21)OCO3"
assaysystem = "NCI-H23 lung"
labelclass = "NO"

[[record]]
compound = "CC(CO)(Nc1ccc([N+](=O)[O-])cc1[N+](=O)[O-])C(=O)O (stereo not given)"
assaysystem = "NCI-H23 lung"
labelclass = "YES"

[[record]]
compound = "COC(=O)C(C(=O)C(=O)Nc1ccc([N+](=O)[O-])cc1)c1nc2ccc([N+](=O)[O-])cc2[nH]c1=O (stereo not given)"
assaysystem = "NCI-H23 lung"
labelclass = "YES"

[[record]]
compound = "c1ccc2c(c1)CCc1c-2n[nH]c1-c1[nH]nc2c1CCc1ccccc1-2"
assaysystem = "NCI-H23 lung"
labelclass = "YES"

[[record]]
compound = "CCCc1[nH]c2ccccc2c1-c1c(CCC)[nH]c2ccccc12"
assaysystem = "NCI-H23 lung"
labelclass = "YES"

[[record]]
compound = "COc1ccc2c(c1)C(=O)c1c-2c(OCCN(C)C)nc2ccccc12"
assaysystem = "NCI-H23 lung"
labelclass = "NO"

[[record]]
compound = "N#CNc1nc(N)c(-c2ccc(Cl)cc2)c(C(=O)Nc2nccs2)n1"
assaysystem = "NCI-H23 lung"
labelclass = "YES"


Request: Does "N#Cc1nc(C#N)n(S(=O)(=O)c2ccccc2)c1NS(=O)(=O)c1ccccc1" have a reported TGI of at least 20 µM?
Result: YES

Request: Does "O=C(c1ccco1)N(C(=O)N1CCN(c2ccccc2)CC1)S(=O)(=O)c1ccccc1" have a reported TGI of at least 20 µM?
Result: YES

Request: Does "Cc1cc2c(c(C(N)=O)c1C)-c1cc(Cl)cc(Cl)c1C2=O" have a reported TGI of at least 20 µM?
Result: YES

Request: Does "Fc1ccc(/C=N/n2c(-c3ccc(F)c(Cl)c3)n[nH]c2=S)cc1" have a reported TGI of at least 20 µM?
Result: YES

Request: Does CN=C1OC2(c3ccccc3)C3=C(OC(=NC)N2C)C(=O)OC3(c2ccccc2)N1C (stereo not given) have a reported TGI of at least 20 µM?
Result: YES

Request: Does CCc1ccc2c(c1)N(CC(C)CN(C)C)c1ccccc1S2 (stereo not given) have a reported TGI of at least 20 µM?
Result: YES

Request: Does "CCN(CC)c1nnc(CCCCCCCCc2nnc(N(CC)CC)o2)o1" have a reported TGI of at least 20 µM?
Result: YES
